- System: NCI/ADR-RES ovarian
- procedure_text: NCI-60 one-dose screen, 48 h
- assay_context: 10 µM
This is part of a sample that, as a whole, favours compounds with a hit. Of some 83,000 tested, about 20% had one in any assay. Active and inactive are the calls of the source. The calls were made as follows: active = growth percent below 10; inactive = the rest.
Pick one and only one: 1 (yes) = active, 0 (no) = inactive

Worked examples follow.
INSERT INTO results (molecule, test_system, class_name) VALUES
  ('CCOC(=O)c1ccc(NC(=O)Nc2ncc(Cl)cc2Cl)cc1', 'NCI/ADR-RES ovarian', '0 (no)'),
  ('CCOC(=O)CCC(NC(=O)c1ccc(N)cc1)C(=O)OCC (stereo not drawn)', 'NCI/ADR-RES ovarian', '0 (no)'),
  ('COc1ccc(-c2nn(-c3cccc(NC(=O)c4ccc5c(c4)OCCO5)c3)cc2-c2ccncc2)cc1Cl', 'NCI/ADR-RES ovarian', '0 (no)'),
  ('CCN1Cc2c(/C=C/c3ccccc3)nc3ccc(OC)cc3c2N(c2cccc(Cl)c2)C1', 'NCI/ADR-RES ovarian', '0 (no)'),
  ('COc1ccc(-c2nc(-c3nc4cc(Cl)c(F)cc4[nH]3)c3ccccn23)cc1', 'NCI/ADR-RES ovarian', '0 (no)'),
  ('C#Cc1ccc(-n2c(/C=C/c3cc(OC)cc(OC)c3)nc3ncccc3c2=O)cc1', 'NCI/ADR-RES ovarian', '0 (no)'),
  ('O=C(N/N=C/c1cc2ccccc2c2ccccc12)c1cc(O)c(O)c(O)c1', 'NCI/ADR-RES ovarian', '0 (no)'),
  ('COc1ccc2c(c1)C(=O)c1c-2c(=O)n(CCCN(C)C)c2cc(OC)c(OC)cc12', 'NCI/ADR-RES ovarian', '0 (no)');

## Task Give the logged outcome of this assay for the following molecule: "Cc1c(Cl)cccc1NC(=O)c1sc2nc3c(cc2c1N)C(=O)CCC3"
## Result 1 (yes)

## Task Note, next up: "CC(C)(C)NC/C(=C\c1ccccc1)C(=O)c1ccccc1"
## Result 1 (yes)

## Task Note, next up: CCCCCCCCCCCCCCCCN(C(C)c1ccccc1)S(=O)(=O)c1ccc(OC)c(N)c1 (stereo not drawn)
## Result 0 (no)

## Task Note, next up: "O=C(Nc1ccncc1)C(=O)c1cn(S(=O)(=O)c2cccc3ccccc23)c2ccccc12"
## Result 0 (no)
